# Assay System: T1, rat NTR1 (rat, UniProt P20789 1-424)
# T1 construct: whole, on cells; PI turnover on intact cells; also called rNTR; rNTR1
# T1 sequence (P20789 whole entry): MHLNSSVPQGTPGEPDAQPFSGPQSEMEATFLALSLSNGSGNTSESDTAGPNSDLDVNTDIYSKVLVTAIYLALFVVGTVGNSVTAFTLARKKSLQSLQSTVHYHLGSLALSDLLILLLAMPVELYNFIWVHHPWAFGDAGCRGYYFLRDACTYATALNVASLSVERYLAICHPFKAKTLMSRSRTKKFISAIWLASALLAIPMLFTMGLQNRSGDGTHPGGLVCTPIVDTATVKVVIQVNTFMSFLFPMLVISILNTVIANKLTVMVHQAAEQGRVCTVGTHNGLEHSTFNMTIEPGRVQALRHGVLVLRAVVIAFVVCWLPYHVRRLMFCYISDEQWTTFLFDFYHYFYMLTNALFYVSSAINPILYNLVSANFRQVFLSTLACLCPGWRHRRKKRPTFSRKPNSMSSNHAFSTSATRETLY
# Protocol Description: competition with [3H]NT, membranes of CHO-K1 cells expressing rat NTR1
Numbered stars: 1 amine (or outer) side, 2 acyl side, 3 side chain; on linkers, the order of the positions; unused ones are H or OH. Square brackets hold non-standard residues; d marks the D form. Ends that are not written are not given here. dneoTrp = D-neo-Trp, (2R)-2-amino-3-(1H-indol-4-yl)propanoic acid, O=C([C@@H](Cc1cccc2[nH]ccc12)N[*:1])[*:2]; Ala(indol-4-yl) = N[C@@H](Cc1cccc2[nH]ccc12)C(=O)O; 1Nal = N[C@@H](Cc1cccc2ccccc12)C(=O)O; NMeR = CN[C@@H](CCCNC(=N)N)C(=O)O; Tle = CC(C)(C)[C@H](N)C(=O)O
The threshold is 800 pM. Values of Kd beneath it are tagged rule met; values meeting or exceeding it are tagged rule not met.

Illustrative cases are given below, each with its answer.
For RRPWIL [NTW] , is the recorded Kd below the cut-off of 800 pM? rule met

Please indicate whether the reported Kd of RRP[Ala(indol-4-yl)][Tle]L (NT(8-13) analog) [NT65L] is strictly below 800 pM. rule met

Please check: Kd for RRP[1Nal]IL (NT(8-13) analog) [NT34] , strictly under 800 pM or not? rule met

In plain terms, does RRP[dneoTrp]IL (NT(8-13) analog) [NT64D] come in under 800 pM for Kd? rule not met

Answer whether the binder [NMeR]KPW[Tle]L (Hexapeptide N-methyl-Arg, L-Lys, L-Pro, L-Trp, tert-Leu, L-Leu (Tsuchiya et al., EP application 89104302.8); also called Eisai compound; Eisai analog) [Eisai] has Kd strictly less than 800 pM rule not met

New cases:
I'd appreciate it if you could check whether RRP[Ala(indol-4-yl)]IL (NT(8-13) analog) [NT64L] has Kd smaller than 800 pM. rule met

Is Kd of [dK]RP[Ala(indol-4-yl)]IL (NT(8-13) analog) [NT67L] strictly below 800 pM? rule met

Hello, is Kd of the following binder strictly smaller than 800 pM? RPYIL (Synthetic pentapeptide, residues 9-13 of neurotensin) [NT(9-13)] rule not met
